Recorded IC50 of HGF stimulated c-Met phosphorylation in A549 cells by entry
TARGET_SYSTEM: recombinant human HGF (hepatocyte growth factor) (human, UniProt P14210 32-728)
Sequence (P14210 32-728 limits assumed): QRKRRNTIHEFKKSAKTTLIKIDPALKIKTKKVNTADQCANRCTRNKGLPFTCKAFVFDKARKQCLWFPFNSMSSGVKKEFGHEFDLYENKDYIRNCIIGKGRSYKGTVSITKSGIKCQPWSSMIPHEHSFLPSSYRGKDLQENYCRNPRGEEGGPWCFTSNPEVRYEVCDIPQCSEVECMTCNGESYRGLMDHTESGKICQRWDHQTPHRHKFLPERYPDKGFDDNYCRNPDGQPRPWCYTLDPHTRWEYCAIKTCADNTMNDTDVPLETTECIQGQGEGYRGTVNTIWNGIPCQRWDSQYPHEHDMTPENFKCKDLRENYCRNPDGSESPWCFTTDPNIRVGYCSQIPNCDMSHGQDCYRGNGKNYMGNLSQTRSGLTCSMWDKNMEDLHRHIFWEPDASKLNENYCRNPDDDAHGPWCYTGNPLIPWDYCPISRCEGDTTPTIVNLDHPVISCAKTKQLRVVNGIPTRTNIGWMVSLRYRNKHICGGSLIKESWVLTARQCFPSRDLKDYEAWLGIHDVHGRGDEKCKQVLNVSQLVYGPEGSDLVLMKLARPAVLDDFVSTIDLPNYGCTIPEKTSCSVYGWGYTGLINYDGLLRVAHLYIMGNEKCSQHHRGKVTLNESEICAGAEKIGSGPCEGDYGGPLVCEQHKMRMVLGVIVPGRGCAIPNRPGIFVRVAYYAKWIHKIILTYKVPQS
METHOD_NOTES: cell-based or functional assay
METRIC_NAME: IC50 of HGF stimulated c-Met phosphorylation in A549 cells (nM)

BINDER: DARPin #42 (designed binder) MRGSHHHHHHGSDLGKKLLEAARAGQDDEVRILMANGADVNAKYEDGLTPLHLAAFYGHLEIVEVLLKHGADVNATDAWGHTPLHLAAHYGHLEIVEVLLKYGADVNAIDTLGYTPLHLAANFGHLEIVEVLLKNGADVNAQDKFGKTAFDISIDNGNEDLAEILQKLN
UNIT_ABBREVIATION: nM
READOUT_NUMBER: 0.32
--
BINDER: DARPin #43 (designed binder) MRGSHHHHHHGSDLGKKLLEAARAGQDDEVRILMANGADVNAKYEDGLTPLHLAAFYGHLEIVEVLLKHGADVNATDAWGHTPLHLAAYYGHLEIVEVLLKYGADVNTHDKEGMTALHLAALTGHLEIVEVLLKNGADVNAQDKFGKTAFDISIDNGNEDLAEILQKLN
UNIT_ABBREVIATION: nM
READOUT_NUMBER: 0.16
--
BINDER: DARPin #51 (designed binder) MRGSHHHHHHGSDLGKKLLEAARAGQDDEVRILLKAGADVNAKDRYGDTPLHLAADIGHLEIVEVLLKAGADVNAEDYFGNTPLHLAASYGHLEIVEVLLKAGADVNAKDDYGNTPLHLAANTGHLEIVEVLLKAGADVNAQDKSGKTPADLAADAGHEDIAEVLQKLN
UNIT_ABBREVIATION: nM
READOUT_NUMBER: 0.01
